Data origin: patent US20260014146A1

tested.on: CDK2/Cyclin E1 (Homo sapiens (Human), UniProt P24941)
assay.details: Caliper LabChip EZ Reader mobility shift assay
Type: biochemical
test.parameters: 2.5 nM CDK2/Cyclin E1 (14-475), 100 μM ATP, 1.5 μM fluorescent peptide; read-out: Caliper Assay (CDK2/CCNE1): IC50
measurement.label: IC50

compound	result
C[C@@H](OCC1CCCCC1)[C@H](NC(=O)[C@@H]1CN(c2nccc3ncsc23)CC12CN(C(=O)[C@H]1CC1(C)C)C2)C(=O)N1CCCCC1 [Compound I-15]	0.1 to 1 µM
CNC(=O)[C@@H](NC(=O)[C@@H]1CN(C(=O)c2cnn(Cc3ccccc3)c2)CC12CN(c1nnn[nH]1)C2)[C@@H](C)OCC1CCCCC1 [Compound I-1]	> 10 µM
COC[C@H]1CCCN(C(=O)[C@@H](NC(=O)[C@H]2CN(c3nc(C(F)(F)F)cs3)CC23CN(C(=O)[C@H]2CC2(C)C)C3)[C@@H](C)OCC23CCC(CC2)OC3)C1 [I-17 2nd]	> 10 µM
